Each entry below carries its reported inhibition.
molecular target: Serine/threonine-protein kinase Sgk3 (Homo sapiens); details: at 1 µM;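 note: each value is a mean of replicate inhibition readings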

{"SMILES_NOTATION": "Nc1nc(-c2ccc3c(c2)C(=Cc2cc(Br)c(O)c(Br)c2)C(=O)N3)cs1", "TESTED_SYSTEM": "Serine/threonine-protein kinase Sgk3 (Homo sapiens)", "inhibition (%)": -0.04}
{"SMILES_NOTATION": "CCN1CCC(CC(=O)Nc2n[nH]c3nc(-c4cccs4)c(Br)cc23)CC1", "TESTED_SYSTEM": "Serine/threonine-protein kinase Sgk3 (Homo sapiens)", "inhibition (%)": -2.06}
{"SMILES_NOTATION": "COc1ccc(-c2nn3ncccc3c2-c2ccnc(Nc3ccc(Cl)c(C(F)(F)F)c3)n2)cc1", "TESTED_SYSTEM": "Serine/threonine-protein kinase Sgk3 (Homo sapiens)", "inhibition (%)": 2.89}
{"SMILES_NOTATION": "Cc1cc(O)cc(C)c1/C=C/c1cncc(-c2nn[nH]n2)c1", "TESTED_SYSTEM": "Serine/threonine-protein kinase Sgk3 (Homo sapiens)", "inhibition (%)": 3.83}
{"SMILES_NOTATION": "CC(C)=Cc1cccc2c1/C(=N/Nc1ccc(S(N)(=O)=O)cc1)C(=O)N2", "TESTED_SYSTEM": "Serine/threonine-protein kinase Sgk3 (Homo sapiens)", "inhibition (%)": 0.72}
{"SMILES_NOTATION": "COc1cc2ncn(-c3cc(OCc4ccccc4Cl)c(C(N)=O)s3)c2cc1OC", "TESTED_SYSTEM": "Serine/threonine-protein kinase Sgk3 (Homo sapiens)", "inhibition (%)": 0.41}
{"SMILES_NOTATION": "CCn1c(-c2nonc2N)nc2cncc(C(=O)N3CC[C@H](N)C3)c21", "TESTED_SYSTEM": "Serine/threonine-protein kinase Sgk3 (Homo sapiens)", "inhibition (%)": 68.1}

====

Each entry below carries its reported inhibition.
target: PAS domain-containing serine/threonine-protein kinase (Homo sapiens) (UniProt Q96RG2); details: at 0.1 µM
Sequence (Q96RG2 whole entry, the tested form may be a part): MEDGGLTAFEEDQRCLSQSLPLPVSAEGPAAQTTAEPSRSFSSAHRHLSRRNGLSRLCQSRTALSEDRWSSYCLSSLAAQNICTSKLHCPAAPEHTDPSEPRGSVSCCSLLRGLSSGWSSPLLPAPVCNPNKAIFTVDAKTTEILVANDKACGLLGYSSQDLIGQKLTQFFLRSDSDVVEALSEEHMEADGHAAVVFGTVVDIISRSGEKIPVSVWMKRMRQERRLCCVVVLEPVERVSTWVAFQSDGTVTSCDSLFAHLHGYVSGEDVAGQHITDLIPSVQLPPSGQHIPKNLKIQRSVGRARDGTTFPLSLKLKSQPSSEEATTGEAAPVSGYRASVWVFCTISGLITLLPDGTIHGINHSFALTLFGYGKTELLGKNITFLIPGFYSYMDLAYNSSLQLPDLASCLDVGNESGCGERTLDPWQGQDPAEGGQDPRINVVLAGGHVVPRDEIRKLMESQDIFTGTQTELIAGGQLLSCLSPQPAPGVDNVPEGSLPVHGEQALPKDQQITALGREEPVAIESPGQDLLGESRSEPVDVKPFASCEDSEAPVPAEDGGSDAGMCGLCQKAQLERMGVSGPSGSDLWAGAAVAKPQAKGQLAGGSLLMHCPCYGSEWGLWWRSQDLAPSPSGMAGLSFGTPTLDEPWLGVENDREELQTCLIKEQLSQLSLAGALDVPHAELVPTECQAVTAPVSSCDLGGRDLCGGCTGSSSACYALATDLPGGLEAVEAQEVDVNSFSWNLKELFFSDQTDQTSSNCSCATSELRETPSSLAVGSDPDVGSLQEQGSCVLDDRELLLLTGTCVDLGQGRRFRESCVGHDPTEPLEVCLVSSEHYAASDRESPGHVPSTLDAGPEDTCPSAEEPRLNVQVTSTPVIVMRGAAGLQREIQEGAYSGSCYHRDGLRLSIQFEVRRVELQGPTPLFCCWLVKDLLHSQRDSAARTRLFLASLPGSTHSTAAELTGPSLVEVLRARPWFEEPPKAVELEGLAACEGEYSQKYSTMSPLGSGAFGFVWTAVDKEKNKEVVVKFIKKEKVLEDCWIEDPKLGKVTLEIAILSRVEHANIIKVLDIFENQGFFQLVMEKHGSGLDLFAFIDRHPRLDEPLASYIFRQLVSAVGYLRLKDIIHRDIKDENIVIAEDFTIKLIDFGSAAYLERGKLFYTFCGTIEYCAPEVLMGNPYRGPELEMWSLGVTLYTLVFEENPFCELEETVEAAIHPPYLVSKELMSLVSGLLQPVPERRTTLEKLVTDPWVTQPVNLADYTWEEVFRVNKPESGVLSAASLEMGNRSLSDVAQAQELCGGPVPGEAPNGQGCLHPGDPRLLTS
Description: GSK_PKIS: PASK mean inhibition at 0.1 uM [Nanosyn]

{"MOLECULE": "COc1cc2ncn(-c3cc(O[C@@H](C)c4ccccc4Cl)c(C(N)=O)s3)c2cc1OC", "TESTED_SYSTEM": "PAS domain-containing serine/threonine-protein kinase (Homo sapiens) (UniProt Q96RG2)", "inhibition [%]": 0.19}
{"MOLECULE": "Nc1nc(-c2ccc3c(c2)C(=Cc2cc(Br)c(O)c(Br)c2)C(=O)N3)cs1", "TESTED_SYSTEM": "PAS domain-containing serine/threonine-protein kinase (Homo sapiens) (UniProt Q96RG2)", "inhibition [%]": -0.9}
{"MOLECULE": "Nc1ncnc2occ(-c3ccc(NC(=O)Nc4cc(C(F)(F)F)cc(C(F)(F)F)c4)cc3)c12", "TESTED_SYSTEM": "PAS domain-containing serine/threonine-protein kinase (Homo sapiens) (UniProt Q96RG2)", "inhibition [%]": 0.36}
{"MOLECULE": "Cc1nnc(-c2ccc(C)c(-c3ccc(C(=O)Nc4cccc(C#N)c4)cc3)c2)o1", "TESTED_SYSTEM": "PAS domain-containing serine/threonine-protein kinase (Homo sapiens) (UniProt Q96RG2)", "inhibition [%]": 0.45}
{"MOLECULE": "CNC(=O)c1cncc(/C=C/c2c(Cl)cccc2Cl)c1", "TESTED_SYSTEM": "PAS domain-containing serine/threonine-protein kinase (Homo sapiens) (UniProt Q96RG2)", "inhibition [%]": -1.52}
{"MOLECULE": "COc1ccc(-c2coc3ncnc(N)c23)cc1", "TESTED_SYSTEM": "PAS domain-containing serine/threonine-protein kinase (Homo sapiens) (UniProt Q96RG2)", "inhibition [%]": -0.15}
{"MOLECULE": "O=C1NC(=O)C(c2ccccc2Cl)=C1Nc1cccc(O)c1", "TESTED_SYSTEM": "PAS domain-containing serine/threonine-protein kinase (Homo sapiens) (UniProt Q96RG2)", "inhibition [%]": 0.42}
{"MOLECULE": "COc1ccc2cc(-c3c(-c4ccncc4)nc(-c4ccc([S+](C)[O-])cc4)n3C)ccc2c1 (stereo not given)", "TESTED_SYSTEM": "PAS domain-containing serine/threonine-protein kinase (Homo sapiens) (UniProt Q96RG2)", "inhibition [%]": 0.01}
{"MOLECULE": "CC1=C(C(=O)Nc2ccc3[nH]ncc3c2)C(c2ccc(F)cc2)NC(=O)N1 (stereo not given)", "TESTED_SYSTEM": "PAS domain-containing serine/threonine-protein kinase (Homo sapiens) (UniProt Q96RG2)", "inhibition [%]": -0.71}
{"MOLECULE": "CC1=C(C(=O)Nc2ccc3[nH]ncc3c2)C(c2ccc(Cl)c(Cl)c2)CC(=O)N1 (stereo not given)", "TESTED_SYSTEM": "PAS domain-containing serine/threonine-protein kinase (Homo sapiens) (UniProt Q96RG2)", "inhibition [%]": -0.49}
